# Experimental Setup: cardiac sensitization relative to CFC-113
Please provide measured CS/CS113 for the entries that follow.

Query: CS/CS113; subject: FC(F)(F)/C(Cl)=C(\Cl)C(F)(F)F [(E)-2,3-dichlorohexafluoro-2-butene] 72.4

Query: CS/CS113; subject: "FC1(F)C(Cl)=C(Cl)C(F)(F)C1(F)F" 9.9

Query: CS/CS113; subject: CCOC(F)(F)C(F)Cl (stereo not drawn) 15.0

Query: CS/CS113; subject: FC(F)(F)C(F)(F)C(F)(F)C(F)(F)/C=C\C(F)(F)C(F)(F)C(F)(F)C(F)(F)F [1,2-(Z)-bis(perfluoro-n-butyl)ethylene] 1188.5

Query: CS/CS113; subject: "FC=CC(F)(F)Br" 12.9

Query: CS/CS113; subject: "O=C(CC(F)(F)F)C(F)(F)Br" 17.1

Query: CS/CS113; subject: "COC(C(F)(F)F)C(F)(F)F" 107.3

Query: CS/CS113; subject: "Fc1c(F)c(F)c(C(F)(F)F)c(Br)c1F" 21.5

Query: CS/CS113; subject: "FC1=C(OCC(F)(F)F)C(F)(F)C(F)(F)C(F)(F)C1(F)F" 70.2

----------
# Experimental Setup: cardiac sensitization relative to CFC-113
# Source text: Parameters such as the lethal dose 50 (LD50), lethal concentration 50 (LC50), cardiac sensitization, skin irritation, and mutagenicity (e.g., via the Ames test) can be used as toxicity metrics. The LDn or LCn abbreviations, where n is the percent lethality, are used for the dose of a toxicant lethal to n % of a test population. […] Cardiac sensitization is a measure of the ability of a compound to cause cardiac arrhythmia under stress. […]
Cut-off 50 on CS/CS113: below means fulfilled, at or above means not fulfilled.

CS/CS113 under 50? Item: "FC(F)(F)C(F)(F)C(F)(F)C(F)(F)OC(F)(F)C(F)(F)C(F)(F)C(F)(F)F" not fulfilled

CS/CS113 under 50? Item: FC(F)(F)C(F)(F)C(F)(F)C(F)(F)C1(F)OC(F)(F)C(F)(F)C1(F)F (centres unmarked) [perfluoro-2-butyltetrahydrofuran] not fulfilled

CS/CS113 under 50? Item: F/C(=C(\F)C(F)(F)Br)C(F)(F)F [(Z)-1-bromo-perfluoro-2-butene] fulfilled

----------
# Experimental Setup: cardiac sensitization relative to CFC-113
Classification field: enter Satisfied for CS/CS113 values not below 30, Not satisfied for values below it.

Textbook exercise: given the entry "FC(F)(F)c1cc(C(F)(F)F)c(Br)c(C(F)(F)F)c1" , state whether its CS/CS113 is greater than or equal to 30. Satisfied

Textbook exercise: given the entry "C=C(F)C(F)(F)C(F)(F)Br" , state whether its CS/CS113 is greater than or equal to 30. Not satisfied

Textbook exercise: given the entry "Fc1c(F)c(F)c(C(F)(F)F)c(F)c1F" , state whether its CS/CS113 is greater than or equal to 30. Satisfied

Textbook exercise: given the entry "F/C(Br)=C(/F)OCC(F)(F)F" , state whether its CS/CS113 is greater than or equal to 30. Satisfied

Textbook exercise: given the entry FC(OC(F)(F)C(F)(F)C(F)(F)F)C(F)(F)F (stereo not drawn) , state whether its CS/CS113 is greater than or equal to 30. Satisfied

Textbook exercise: given the entry COC(=O)C(F)(F)C(F)(F)F [methyl pentafluoropropanoate] , state whether its CS/CS113 is greater than or equal to 30. Not satisfied

Textbook exercise: given the entry "O=C(CC(F)(F)F)CC(F)(F)Br" , state whether its CS/CS113 is greater than or equal to 30. Satisfied

Textbook exercise: given the entry "C=C(OC(F)(F)Br)C(F)(F)F" , state whether its CS/CS113 is greater than or equal to 30. Not satisfied

Textbook exercise: given the entry "FC(F)(F)O/C=C/OC(F)(F)Br" , state whether its CS/CS113 is greater than or equal to 30. Satisfied

Textbook exercise: given the entry "C=C(C(F)(F)F)C(F)(F)Br" , state whether its CS/CS113 is greater than or equal to 30. Not satisfied

Textbook exercise: given the entry "FC(F)(F)O/C=C\OC(F)(F)Br" , state whether its CS/CS113 is greater than or equal to 30. Satisfied

Textbook exercise: given the entry "OC(C(F)(F)F)(C(F)(F)F)C(F)(F)F" , state whether its CS/CS113 is greater than or equal to 30. Satisfied
